Data origin, for the record: ChEMBL document CHEMBL4602695

Here we list compounds with their recorded pIC50 when tested on CDK2/Cyclin A2 (Homo sapiens).
Interpret pIC50 as the negative base-10 log of the concentration measured in mol/L.

See these solved cases before continuing.
Cc1ccccc1Nc1nc(Nc2ccc(N3CCCCC3)cn2)ncc1Cl
5.32
Cc1ccccc1Nc1nc(Nc2ccc(N3CCCN(C)CC3)cc2)ncc1Cl
5.80

Next item in the queue.
Q: // fetch pIC50; item: COC[C@@H](C)N[C@H]1CC[C@H](Nc2cc(-c3cccc(NCC4(C#N)CCOCC4)n3)c(Cl)cn2)CC1 ; system: CDK2/Cyclin A2 (Homo sapiens)
Ans: 5.46

----------
Reported GI50 is given for each of the following compounds.
system: Jurkat; experiment: Antiproliferative activity against human Jurkat cells assessed as inhibition of cell proliferation measured after 48 hrs by CCK8 assay; type: functional, cell-based
Give a bare numeral; the unit µM is implied.

See these solved cases before continuing.
CC(C)c1ccccc1Nc1nc(Nc2ccc(N3CCN(C)CC3)cn2)ncc1Cl
5.14
COc1ccccc1CNc1nc(Nc2ccc(N3CCN(C)CC3)cn2)ncc1Cl
10.8
COc1cc(Nc2ncc(Cl)c(Nc3ccccc3C)n2)ccn1
9.38

Q: Read off the recorded GI50 for COc1ccc(CNc2nc(Nc3ccc(N4CCN(C)CC4)cn3)ncc2Cl)cc1
Ans: 12.9

Q: Read off the recorded GI50 for Cc1ccccc1Nc1nc(Nc2ccc(N3CCOCC3)cn2)ncc1Cl
Ans: 14.1

Q: Read off the recorded GI50 for Cc1cccc(Nc2nc(Nc3ccc(N4CCN(C)CC4)cn3)ncc2Cl)c1
Ans: 15.3

----------
experiment: Clearance in mouse hepatocytes assessed per million cells by LC-MS/MS analysis; assay type: ADME, cell-based, Hepatocyte; conditions: read-out: CLH
parameterMeasured: hepatocyte CLint (µL/min/1e6 cells)
Give a bare numeral; the unit µL/min/1e6 cells is implied.

Q: Read off the recorded hepatocyte CLint for CC(=O)Nc1cccc(Nc2nc(Nc3ccc(N4CCN(C)CC4)cn3)ncc2Cl)c1
Ans: 17.7

----------
target: CDK6/cyclin D3 (Homo sapiens); test: Binding affinity to recombinant full-length GFP-fused CDK6/His-tagged cyclin D3 (unknown origin) expressed in HEK293T cells measured after 30 mins by microscale thermophoresis method
parameterMeasured: Kd (nM)
Give a bare numeral; the unit nM is implied.

Q: Read off the recorded Kd for CC(=O)Nc1cccc(Nc2nc(Nc3ccc(N4CCN(C)CC4)cn3)ncc2Cl)c1
Ans: 71

----------
Reported IC50 is given for each of the following compounds.
target: CDK6/cyclin D3 (Homo sapiens, UniProt Q00534)
Sequence (P30281 whole entry, the tested form may be a part): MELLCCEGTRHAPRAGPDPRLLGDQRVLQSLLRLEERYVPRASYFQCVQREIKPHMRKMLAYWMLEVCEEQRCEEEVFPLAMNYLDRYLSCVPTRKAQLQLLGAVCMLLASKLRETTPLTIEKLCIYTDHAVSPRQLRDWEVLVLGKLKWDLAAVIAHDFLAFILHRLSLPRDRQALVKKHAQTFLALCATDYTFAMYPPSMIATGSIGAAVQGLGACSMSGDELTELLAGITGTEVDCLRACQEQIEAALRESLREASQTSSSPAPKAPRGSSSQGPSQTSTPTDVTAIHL
Sequence (Q00534 whole entry, the tested form may be a part): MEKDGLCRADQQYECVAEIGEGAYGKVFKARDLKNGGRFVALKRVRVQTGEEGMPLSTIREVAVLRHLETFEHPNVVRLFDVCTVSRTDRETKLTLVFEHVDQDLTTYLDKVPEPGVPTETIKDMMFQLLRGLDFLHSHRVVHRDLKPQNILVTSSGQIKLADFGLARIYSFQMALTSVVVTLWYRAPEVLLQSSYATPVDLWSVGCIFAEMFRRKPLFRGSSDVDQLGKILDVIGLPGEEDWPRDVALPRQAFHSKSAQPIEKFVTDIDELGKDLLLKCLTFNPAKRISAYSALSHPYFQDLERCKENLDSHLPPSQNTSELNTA

Cc1ccc(Nc2ncc(Cl)c(Nc3ccccc3C)n2)cc1
> 10 µM
Cc1cc(C)c(Nc2nc(Nc3ccc(N4CCN(C)CC4)cn3)ncc2Cl)c(C)c1
8.87 µM
Cc1ccccc1Nc1nc(Nc2ccncc2)ncc1Cl
> 10 µM
Cc1ccccc1Nc1nc(NCc2ccncc2)ncc1Cl
> 10 µM
CC(C)c1ccc(Nc2nc(Nc3ccc(N4CCN(C)CC4)cn3)ncc2Cl)cc1
0.126 µM
Cc1ccccc1Nc1nc(NCc2ccccc2)ncc1Cl
> 10 µM
Cc1ccccc1Nc1nc(NCCc2ccccc2)ncc1Cl
> 10 µM
Cc1ccccc1Nc1nc(Nc2ccc(N3CCCCC3)cc2)ncc1Cl
> 10 µM

Q: // fetch IC50; item: CCN1CCN(c2ccc(Nc3ncc(Cl)c(Nc4ccccc4C)n3)nc2)CC1 ; system: CDK6/cyclin D3 (Homo sapiens, UniProt Q00534)
Ans: > 10 µM

Q: // fetch IC50; item: Cc1ccccc1Nc1nc(Nc2ccccn2)ncc1Cl ; system: CDK6/cyclin D3 (Homo sapiens, UniProt Q00534)
Ans: 2.76 µM

Q: // fetch IC50; item: Cc1ccccc1Nc1nc(Nc2ccc(N3CCN(C(=O)OC(C)(C)C)CC3)cc2)ncc1Cl ; system: CDK6/cyclin D3 (Homo sapiens, UniProt Q00534)
Ans: 0.116 µM
